Test system: Streptococcus pneumoniae
Measurement protocol: Antimicrobial activity against Streptococcus pneumoniae IID554 by micro broth dilution or agar based method
Assay type: functional
Assay setup: Streptococcus pneumoniae, IID554; read-out: MIC
MIC: recorded values
Property: MIC (µg/mL)

- O=C1COc2ccc(CNC34CCC(C[C@]5(O)Cn6c(=O)ccc7nc(Cl)c(F)c5c76)(CC3)OC4)nc2N1: 8
- O=C1COc2ccc(CNC34CCC(CC5(O)Cn6c(=O)cc(Cl)c7ncc(F)c5c76)(CC3)OC4)nc2N1 (racemic): 2
- Cc1cc(=O)n2c3c(c(F)cnc13)[C@](O)(CC13CCC(NCc4ccc5c(n4)NC(=O)CO5)(CC1)CO3)C2: 1
- O=C1COc2ccc(CNC34CCC(C[C@@]5(O)Cn6c(=O)c(F)cc7ncc(F)c5c76)(CC3)OC4)nc2N1: 4
- COc1cnc2ccc(=O)n3c2c1[C@](O)(CC12CCC(NCc4ccc5c(n4)NC(=O)CO5)(CC1)CO2)C3: 8
- O=C1COc2ccc(CNC34CCC(C[C@@]5(O)CN6C(=O)CCc7ncc(F)c5c76)(CC3)OC4)nc2N1: 32
- CO[C@]1(CC23CCC(NCc4ccc5c(n4)NC(=O)CO5)(CC2)CO3)Cn2c(=O)ccc3ncc(F)c1c32: 32
- O=C1COc2ccc(CNC34CCC(C[C@]5(O)Cn6c(=O)ccc7ncc(F)c5c76)(CC3)OC4)nc2N1: 0.25
- O=C1COc2ccc(CNC34CCC(C[C@@]5(O)Cn6c(=O)ccc7ncc(Cl)c5c76)(CC3)OC4)nc2N1: 4
- O=C1COc2ccc(CNC34CCC(C[C@@]5(O)Cn6c(=O)ccc7ncc(F)c5c76)(CC3)OC4)nc2N1: 4
- O=C1COc2ccc(CNC34CCC(CC5(F)Cn6c(=O)ccc7ncc(F)c5c76)(CC3)OC4)nc2N1 (racemic): 0.5
- O=C1COc2ccc(CNC34CCC(C[C@]5(O)Cn6c(=O)c(F)cc7ncc(F)c5c76)(CC3)OC4)nc2N1: 0.5
- COc1cnc2ccc(=O)n3c2c1[C@@](O)(CC12CCC(NCc4ccc5c(n4)NC(=O)CO5)(CC1)CO2)C3: 32
- O=C1COc2ccc(CNC34CCC(CC5(O)Cn6c(=O)c(Cl)cc7ncc(F)c5c76)(CC3)OC4)nc2N1 (racemic): 2
- CO[C@@]1(CC23CCC(NCc4ccc5c(n4)NC(=O)CO5)(CC2)CO3)Cn2c(=O)ccc3ncc(F)c1c32: 2
- COc1ccc2ncc(F)c(C[C@H](O)C34CCC(NCc5ccc6c(n5)NC(=O)CO6)(CC3)CO4)c2n1: 0.05

* * *

Measurement protocol: Volume of distribution at steady state in C57BL/6 mouse at 1 mg/kg, iv or 2 mg/kg, po
Type: ADME, organism-based
Assay setup: in vivo, read-out: Vdss
Property: Vd (L/kg)

• O=C1COc2ccc(CNC34CCC(C[C@]5(O)Cn6c(=O)ccc7ncc(F)c5c76)(CC3)OC4)nc2N1 = 11.8

* * *

System: Staphylococcus aureus
Measurement protocol: Antimicrobial activity against Staphylococcus aureus Smith by micro broth dilution or agar based method
Type: functional
Assay setup: Staphylococcus aureus, Smith; read-out: MIC
# note: exactly 4 µg/mL is not below, so it is Not fulfilled; use Fulfilled for MIC strictly under it

* O=C1COc2ccc(CNC34CCC(C[C@]5(O)Cn6c(=O)ccc7ncc(Cl)c5c76)(CC3)OC4)nc2N1 | Fulfilled
* COc1cnc2ccc(=O)n3c2c1[C@@](O)(CC12CCC(NCc4ccc5c(n4)NC(=O)CO5)(CC1)CO2)C3 | Not fulfilled
* CO[C@]1(CC23CCC(NCc4ccc5c(n4)NC(=O)CO5)(CC2)CO3)Cn2c(=O)ccc3ncc(F)c1c32 | Not fulfilled
* O=C1COc2ccc(CNC34CCC(C[C@]5(O)Cn6c(=O)c(F)cc7ncc(F)c5c76)(CC3)OC4)nc2N1 | Fulfilled
* Cc1cc(=O)n2c3c(c(F)cnc13)[C@](O)(CC13CCC(NCc4ccc5c(n4)NC(=O)CO5)(CC1)CO3)C2 | Fulfilled
* O=C1COc2ccc(CNC34CCC(C[C@]5(O)Cn6c(=O)ccc7ncc(F)c5c76)(CC3)OC4)nc2N1 | Fulfilled
* O=C1COc2ccc(CNC34CCC(CC5(O)Cn6c(=O)c(Cl)cc7ncc(F)c5c76)(CC3)OC4)nc2N1 (racemic) | Fulfilled
* O=C1COc2ccc(CNC34CCC(CC5(F)Cn6c(=O)ccc7ncc(F)c5c76)(CC3)OC4)nc2N1 (racemic) | Fulfilled
* COc1ccc2ncc(F)c(C[C@H](O)C34CCC(NCc5ccc6c(n5)NC(=O)CO6)(CC3)CO4)c2n1 | Fulfilled
* O=C1COc2ccc(CNC34CCC(CC5(O)Cn6c(=O)cc(Cl)c7ncc(F)c5c76)(CC3)OC4)nc2N1 (racemic) | Fulfilled
* O=C1COc2ccc(CNC34CCC(C[C@]5(O)CN6C(=O)CCc7ncc(F)c5c76)(CC3)OC4)nc2N1 | Not fulfilled
* Cc1cc(=O)n2c3c(c(F)cnc13)[C@@](O)(CC13CCC(NCc4ccc5c(n4)NC(=O)CO5)(CC1)CO3)C2 | Not fulfilled
* O=C1COc2ccc(CNC34CCC(C[C@@]5(O)Cn6c(=O)ccc7ncc(F)c5c76)(CC3)OC4)nc2N1 | Fulfilled

* * *

Measurement protocol: AUC in C57BL/6 mouse at 1 mg/kg, iv
Type: ADME, organism-based
Parameters: dose 1 mg/kg, route intravenous
Assay setup: plasma
Property: AUC (µM·h)

• O=C1COc2ccc(CNC34CCC(C[C@]5(O)Cn6c(=O)ccc7ncc(F)c5c76)(CC3)OC4)nc2N1 = 0.45

* * *

System: Streptococcus pneumoniae
Measurement protocol: Antimicrobial activity against Streptococcus pneumoniae IID554 by micro broth dilution or agar based method
Type: functional
Assay setup: Streptococcus pneumoniae, IID554; read-out: MIC
Property: MIC (µg/mL)

• Cc1cc(=O)n2c3c(c(F)cnc13)[C@@](O)(CC13CCC(NCc4ccc5c(n4)NC(=O)CO5)(CC1)CO3)C2 = 8
• O=C1COc2ccc(CNC34CCC(C[C@]5(O)Cn6c(=O)ccc7ncc(Cl)c5c76)(CC3)OC4)nc2N1 = 1
• O=C1COc2ccc(CNC34CCC(CC5Cn6c(=O)ccc7ncc(F)c5c76)(CC3)OC4)nc2N1 (racemic) = 0.25
• O=C1COc2ccc(CNC34CCC(C[C@]5(O)CN6C(=O)CCc7ncc(F)c5c76)(CC3)OC4)nc2N1 = 8

* * *

Item-by-item account of pIC50
Tested target: Voltage-gated inwardly rectifying potassium channel KCNH2 (Homo sapiens, UniProt Q12809)
Sequence (Q12809 whole entry): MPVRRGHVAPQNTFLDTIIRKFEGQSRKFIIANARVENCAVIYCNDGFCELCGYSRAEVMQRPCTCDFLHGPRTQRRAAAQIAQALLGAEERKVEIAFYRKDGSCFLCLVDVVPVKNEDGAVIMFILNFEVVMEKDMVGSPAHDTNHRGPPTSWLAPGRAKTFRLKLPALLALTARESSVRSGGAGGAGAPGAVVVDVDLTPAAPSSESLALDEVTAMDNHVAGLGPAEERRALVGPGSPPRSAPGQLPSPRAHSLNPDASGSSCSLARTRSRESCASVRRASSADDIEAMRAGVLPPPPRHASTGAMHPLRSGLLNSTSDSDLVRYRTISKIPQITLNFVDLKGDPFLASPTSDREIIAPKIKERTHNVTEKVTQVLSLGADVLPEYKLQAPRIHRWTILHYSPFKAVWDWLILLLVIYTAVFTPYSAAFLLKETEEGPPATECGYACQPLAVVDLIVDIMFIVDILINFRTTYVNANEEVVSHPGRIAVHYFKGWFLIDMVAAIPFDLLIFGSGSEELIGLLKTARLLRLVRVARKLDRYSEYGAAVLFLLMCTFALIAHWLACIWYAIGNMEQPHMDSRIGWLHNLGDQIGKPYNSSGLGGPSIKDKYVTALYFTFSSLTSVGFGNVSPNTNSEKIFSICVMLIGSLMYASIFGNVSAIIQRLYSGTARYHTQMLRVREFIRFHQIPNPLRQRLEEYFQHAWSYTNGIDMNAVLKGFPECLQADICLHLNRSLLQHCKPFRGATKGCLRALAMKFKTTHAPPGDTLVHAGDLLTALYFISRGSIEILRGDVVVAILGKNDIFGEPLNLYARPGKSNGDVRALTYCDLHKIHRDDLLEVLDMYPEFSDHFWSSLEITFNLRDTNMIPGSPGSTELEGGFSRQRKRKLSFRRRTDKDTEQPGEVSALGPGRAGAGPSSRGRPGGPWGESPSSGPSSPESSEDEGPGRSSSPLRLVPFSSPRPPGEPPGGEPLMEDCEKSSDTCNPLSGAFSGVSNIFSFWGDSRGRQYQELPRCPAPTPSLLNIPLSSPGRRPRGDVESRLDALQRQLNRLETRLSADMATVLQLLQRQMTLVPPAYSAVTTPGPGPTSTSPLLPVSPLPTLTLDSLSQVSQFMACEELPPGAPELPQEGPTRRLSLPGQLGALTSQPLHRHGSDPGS
Measurement protocol: Inhibition of human ERG expressed in CHO cells by Patch express assay
Format: cell-based
pIC50: −log10 of the molar value.
Property: pIC50

- O=C1COc2ccc(CNC34CCC(CC5Cn6c(=O)ccc7ncc(F)c5c76)(CC3)OC4)nc2N1 (stereo in doubt; 9): 4.80
- O=C1COc2ccc(CNC34CCC(CC5Cn6c(=O)ccc7ncc(F)c5c76)(CC3)OC4)nc2N1 (stereo in doubt; 10): 4.67
- O=C1COc2ccc(CNC34CCC(CC5Cn6c(=O)ccc7ncc(F)c5c76)(CC3)OC4)nc2N1 (racemic): 4.52

* * *

Test system: Staphylococcus aureus
Measurement protocol: Antimicrobial activity against Staphylococcus aureus Smith by micro broth dilution or agar based method
Format: functional
Assay setup: Staphylococcus aureus, Smith; read-out: MIC
Each record here notes measured MIC.
Property: MIC (µg/mL)

* COc1cnc2ccc(=O)n3c2c1[C@](O)(CC12CCC(NCc4ccc5c(n4)NC(=O)CO5)(CC1)CO2)C3 | 8
* O=C1COc2ccc(CNC34CCC(C[C@@]5(O)Cn6c(=O)c(F)cc7ncc(F)c5c76)(CC3)OC4)nc2N1 | 4
* O=C1COc2ccc(CNC34CCC(C[C@@]5(O)CN6C(=O)CCc7ncc(F)c5c76)(CC3)OC4)nc2N1 | 8

* * *

Measurement protocol: Plasma clearance in C57BL/6 mouse at 1 mg/kg, iv or 2 mg/kg, po
Assay type: ADME, organism-based
Property: clearance (mL/min/kg)

* O=C1COc2ccc(CNC34CCC(C[C@]5(O)Cn6c(=O)ccc7ncc(F)c5c76)(CC3)OC4)nc2N1 | 65

* * *

Tested on: Haemophilus influenzae
Measurement protocol: Antimicrobial activity against Haemophilus influenzae ATCC 49247 by micro broth dilution or agar based method
Format: functional
# true (1) = MIC below 8 µg/mL (exclusive); false (0) = MIC at/above 8 µg/mL

* O=C1COc2ccc(CNC34CCC(C[C@]5(O)Cn6c(=O)c(F)cc7ncc(F)c5c76)(CC3)OC4)nc2N1 | true (1)
* COc1ccc2ncc(F)c(C[C@H](O)C34CCC(NCc5ccc6c(n5)NC(=O)CO6)(CC3)CO4)c2n1 | true (1)
* Cc1cc(=O)n2c3c(c(F)cnc13)[C@@](O)(CC13CCC(NCc4ccc5c(n4)NC(=O)CO5)(CC1)CO3)C2 | false (0)
* O=C1COc2ccc(CNC34CCC(C[C@]5(O)Cn6c(=O)ccc7ncc(F)c5c76)(CC3)OC4)nc2N1 | true (1)
* Cc1cc(=O)n2c3c(c(F)cnc13)[C@](O)(CC13CCC(NCc4ccc5c(n4)NC(=O)CO5)(CC1)CO3)C2 | true (1)

Every entry's value here was drawn from ChEMBL document CHEMBL3400001.
